System: SF-539
Test: NCI tumour cell line growth inhibition, 48 h
Activity calls are given as the source filed them. No stated cut-off is given here; in the data, active = GI50 up to about 1.1 µM and inactive = higher. Where a SMILES comes first, the peptide text is derived from it. The star is where a group is joined. Fmoc = O=C(OCC1c2ccccc2-c2ccccc21)*; OBn = c1ccc(CO*)cc1; tBu = CC(C)(C)*
Select the correct class. Options are class 1 = active, class 0 = inactive and nothing else.

Examples from the recorded data:
CC(OC(C)(C)C)C(NC(=O)OCC1c2ccccc2-c2ccccc21)C(=O)NC(Cc1ccccc1)C(=O)OCc1ccccc1 (centres undefined) (Fmoc-Thr(tBu)-Phe-OBn; configuration not given here) : class 0
COc1cc(C2CC(C)(N3CCCC3)Oc3cc4c(cc32)OCO4)cc(OC)c1OC (centres undefined) : class 1
COc1cccc(C2c3cc4c(cc3OC(Nc3ccccc3)C2C)OCO4)c1OC (centres undefined) : class 0

QUERY: Hi team, can someone confirm the assay call for "CC(C)OP(=O)(OC(C)C)/C(I)=N/Nc1ccc([N+](=O)[O-])cc1" ?
RESULT: class 0
